IC50 values by entry
Molecular target: Murine PKD1 kinase domain (Mus musculus, UniProt Q62101)
Construct: hexahistidine (pFastBac HTb leader) (N)
Sequence (Q62101 with tags, fused parts or gaps R683W): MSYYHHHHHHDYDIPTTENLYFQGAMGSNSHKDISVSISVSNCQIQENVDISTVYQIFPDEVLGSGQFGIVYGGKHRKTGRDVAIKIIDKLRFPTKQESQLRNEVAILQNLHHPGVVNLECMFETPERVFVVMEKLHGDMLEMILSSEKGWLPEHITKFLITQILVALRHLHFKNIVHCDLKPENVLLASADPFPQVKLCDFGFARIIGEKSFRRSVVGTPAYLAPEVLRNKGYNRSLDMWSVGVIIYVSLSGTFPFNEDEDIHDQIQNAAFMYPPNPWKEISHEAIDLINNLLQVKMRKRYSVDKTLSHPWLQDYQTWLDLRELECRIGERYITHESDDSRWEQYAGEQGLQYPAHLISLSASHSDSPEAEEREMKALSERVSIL
Assay: PKD1 (Murine Kinase Domain) Enzyme Activity Assay (IMAP fluorescence polarisation)
Conditions: 10 μM ATP, 60 minutes, room temperature
measure.name: IC50

1. CN(C)CCNC(=O)c1cccc(-c2cnc(N)c(-c3cccc(S(C)(=O)=O)c3)c2)c1 | 1000 to 10000 nM
2. COc1ccc2cc(-c3cc(-c4cccc(C(=O)NCCN(C)C)c4)cnc3N)ccc2c1 | < 1000 nM
3. COc1ccc(-c2cc(-c3cccc(C(=O)NCCN(C)C)c3)cnc2N)cc1OC | < 1000 nM
4. CN(C)CCNC(=O)c1cccc(-c2cncc(-c3cccc4c3oc3ccccc34)n2)c1 | < 1000 nM
5. CN(C)CCNC(=O)c1cccc(-c2cnc(N)c(-c3cc4ccccc4o3)c2)c1 | < 1000 nM
6. COc1cncc(-c2cc(-c3cccc(C(=O)NCCN(C)C)c3)cnc2N)c1 | < 1000 nM
7. CN(C)CCNC(=O)c1cccc(-c2cnc(N)c(-c3cccc4cccnc34)c2)c1 | < 1000 nM
8. COc1cccc(-c2cc(-c3cccc(C(=O)NCCN(C)C)c3)cnc2N)n1 | < 1000 nM
9. CN(C)CCNC(=O)c1cccc(-c2cnc(N)c(-c3cc4ccccc4s3)c2)c1 | < 1000 nM
10. COc1ccc(-c2cc(-c3cccc(C(=O)NCCN(C)C)c3)cnc2N)cc1 | < 1000 nM
11. COc1ccccc1-c1nc(-c2cccc(C(=O)NCCN(C)C)c2)cnc1N | 1000 to 10000 nM
12. CN(C)CCNC(=O)c1cccc(-c2cnc(N)c(-c3cnc4ccccc4c3)c2)c1 | < 1000 nM
13. COc1cccc(-c2nc(-c3cccc(C(=O)NCCN(C)C)c3)cnc2N)c1 | < 1000 nM
14. COc1ncc(-c2cc(-c3cccc(C(=O)NCCN(C)C)c3)cnc2N)c(OC)n1 | < 1000 nM
15. CCN(CC)CCNC(=O)c1cccc(-c2cnc(N)c(-c3cccc(OC)c3)c2)c1 | < 1000 nM
16. CCSc1ccc(-c2cc(-c3cccc(C(=O)NCCN(C)C)c3)cnc2N)cc1 | < 1000 nM
17. CN(C)CCNC(=O)c1cccc(-c2cncc(-c3ccc(CO)cc3)n2)c1 | < 1000 nM
18. COCc1cccc(-c2cc(-c3cccc(C(=O)NCCN(C)C)c3)cnc2N)c1 | 1000 to 10000 nM
